Cited source for all entries: patent US12187738B2

Experimental Target: human orexin-1 receptor (Homo sapiens, UniProt O43613)
Construct: expressed in transfected cells; host or cells: CHO cells (G418 selection)
Sequence (O43613 whole entry): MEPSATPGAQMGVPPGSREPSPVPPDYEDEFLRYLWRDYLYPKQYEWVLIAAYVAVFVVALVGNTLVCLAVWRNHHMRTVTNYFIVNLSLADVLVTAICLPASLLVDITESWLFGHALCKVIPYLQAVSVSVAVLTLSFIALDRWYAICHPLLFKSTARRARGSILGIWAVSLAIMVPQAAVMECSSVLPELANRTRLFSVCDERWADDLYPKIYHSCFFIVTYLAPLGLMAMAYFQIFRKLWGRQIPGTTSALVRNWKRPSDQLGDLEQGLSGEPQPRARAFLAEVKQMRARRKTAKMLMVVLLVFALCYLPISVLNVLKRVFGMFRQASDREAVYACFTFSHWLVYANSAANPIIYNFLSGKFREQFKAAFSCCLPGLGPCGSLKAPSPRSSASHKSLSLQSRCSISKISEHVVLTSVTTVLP
Procedure Summary: Intracellular calcium measurement (FLIPR), orexin-1 receptor antagonism
Assay type: cell-based
Stated Conditions: 1 uM compound; CHO cells expressing human orexin-1 receptor; 3 nM orexin-A agonist; read-out: % Inhibition of OX1R @ 1 uM compound
// label = true (1) if inhibition at 1 µM is not less than 50%, otherwise false (0)

Below, 4 molecules whose answers are already recorded.
[[record]]
smi = "O=C(c1c(-c2ccccc2)nc2occn12)N1CCC[C@H]1CNc1ccc(C(F)(F)F)cn1"
group_label = "false (0)"

[[record]]
smi = "O=C(c1c(-c2ccccc2)nc2sccn12)N1CCC[C@H]1Cn1ccc(-c2ccccc2)n1"
group_label = "true (1)"

[[record]]
smi = "CCc1cnc(NC[C@@H]2[C@H](C)CCCN2C(=O)c2c(-c3ccccc3)nc3occn23)nc1"
group_label = "false (0)"

[[record]]
smi = "CCc1cnc(NC[C@@H]2CCCN2C(=O)c2c(-c3ccc(F)cc3)nc3sc(C)nn23)nc1"
group_label = "false (0)"


Threshold query (inhibition at 1 µM >= 50%) on `O=C(c1c(-c2ccc(F)cc2)nc2scnn12)N1CCC[C@H]1Cn1ccc(-c2ccccc2)n1`
true (1)
